# tested-on: Fuc(a1-3)[Gal(b1-4)]Glc6S
# assay-method-text: glycan array binding signal (z-score within array); higher = stronger binding
# settings: glycan notation: IUPAC condensed, linker removed
About 410 targets per protein were measured; listed, in parts, are those with the strongest signals and a random draw of the rest.

- binder: "SP16663B-bot-321-25-321 (Bacteroides ovatus) (protein) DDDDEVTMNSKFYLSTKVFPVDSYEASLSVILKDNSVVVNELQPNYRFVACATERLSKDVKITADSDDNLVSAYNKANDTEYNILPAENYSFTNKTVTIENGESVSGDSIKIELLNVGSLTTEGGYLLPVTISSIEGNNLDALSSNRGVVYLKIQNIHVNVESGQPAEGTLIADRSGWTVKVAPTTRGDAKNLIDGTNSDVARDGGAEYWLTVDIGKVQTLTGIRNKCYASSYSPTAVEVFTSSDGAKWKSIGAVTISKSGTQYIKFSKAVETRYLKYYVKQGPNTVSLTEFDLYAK"
  glycan array binding signal (z-score): 1.36
